Provenance of the data: patent US20230322767A1

CSNK1D (Homo sapiens (Human), UniProt P48730) data, read-out IC50
Sequence (P48730 whole entry): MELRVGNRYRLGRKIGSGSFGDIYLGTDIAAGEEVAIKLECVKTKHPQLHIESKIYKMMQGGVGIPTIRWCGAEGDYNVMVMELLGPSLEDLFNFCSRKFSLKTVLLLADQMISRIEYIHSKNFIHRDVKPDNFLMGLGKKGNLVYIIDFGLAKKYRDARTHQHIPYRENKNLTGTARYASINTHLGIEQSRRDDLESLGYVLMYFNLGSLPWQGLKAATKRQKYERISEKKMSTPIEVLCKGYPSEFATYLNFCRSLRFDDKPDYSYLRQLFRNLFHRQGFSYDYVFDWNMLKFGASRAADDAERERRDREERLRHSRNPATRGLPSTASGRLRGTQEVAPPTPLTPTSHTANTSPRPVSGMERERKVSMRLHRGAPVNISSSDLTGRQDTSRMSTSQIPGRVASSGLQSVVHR
One number for each entry, in nM.

Example compounds with recorded IC50:
Compound: CC(C(=O)Nc1cc(-c2[nH]c3c(c2-c2ccc(F)cc2F)C(=O)N(C)CC3)ccn1)c1ccc(F)cc1 (single isomer, unassigned) [Example 70]
Readout Unit: nM
Recorded Measurement: 7.6
//
Compound: CC(C(=O)Nc1cc(-c2[nH]c3c(c2-c2ccccc2)C(=O)N(C)CC3)ccn1)c1ccncc1 (stereo not shown) [Example 154]
Readout Unit: nM
Recorded Measurement: 6
//
Compound: CN1CCc2[nH]c(-c3ccnc(NC(=O)C(CC(F)F)c4ccc(F)cc4)c3)c(-c3cccnc3)c2C1=O (single isomer, unassigned) [Example 10]
Readout Unit: nM
Recorded Measurement: 64

Consider the following items and state reported IC50 for each.
1. Cn1cc(CC(F)(F)F)c2[nH]c(-c3ccnc(NC(=O)C(CC(F)F)c4ccc(F)cc4)c3)c(-c3ccc(F)cc3)c2c1=O (single isomer, unassigned) [Example 28]
2. CC(C(=O)Nc1cc(-c2[nH]c3c(c2-c2ccccc2)C(=O)N(C)C2(CCC2)C3)ccn1)c1ccc(F)cc1 (single isomer, unassigned; (+)) [Example 54]
3. CC1(C)Cc2[nH]c(-c3ccnc(NC(=O)Cc4ccc(F)cc4)c3)c(-c3cccc(F)c3)c2C(=O)N1 [Example 85]
4. CC(C(=O)Nc1cc(-c2[nH]c3c(c2-c2cccnc2)C(=O)NC(C)(C)C3)ccn1)c1ccc(F)cc1 (single isomer, unassigned) [Example 99]
5. CC(C(=O)Nc1cc(-c2[nH]c3ccn(C)c(=O)c3c2-c2ccccc2)ccn1)c1ccc(F)cc1 (racemic) [Example 103]
6. CC(C(=O)Nc1cc(-c2[nH]c3c(c2-c2ccc(F)cc2F)C(=O)N(C)CC3)ccn1)c1ccc(F)cc1 (racemic) [Example 69]
7. CC(C(=O)Nc1cc(-c2[nH]c3c(c2-c2ccccc2)C(=O)NCC3)ccn1)c1ccc(F)cc1 (racemic) [Example 74]
8. O=C(Nc1cc(-c2[nH]c3c(c2-c2ccccc2)C(=O)N(C2CC2)CC3)ccn1)C(CC(F)F)c1ccc(F)cc1 (racemic) [Example 156]

Key:
1: 5; 2: 3.6; 3: 3.9; 4: 5.5; 5: 11; 6: 2.8; 7: 3; 8: 3.1

Consider the following items and state reported IC50 for each.
1. O=C(Nc1cc(-c2[nH]c3c(Cl)cn(C4CC4)c(=O)c3c2-c2ccc(F)cc2)ccn1)C(CC(F)F)c1ccc(F)cc1 (racemic) [Example 161]
2. CN1CC(C)(C)c2[nH]c(-c3ccnc(NC(=O)C(CC(F)F)c4ccc(F)cc4)c3)c(-c3ccccc3)c2C1=O (racemic) [Example 150]

Key:
11
3.8

###

# Study Target: wild-type Epidermal Growth Factor Receptor (EGFR) (Homo sapiens (Human), UniProt P00533)
# Sequence (P00533 669-1210): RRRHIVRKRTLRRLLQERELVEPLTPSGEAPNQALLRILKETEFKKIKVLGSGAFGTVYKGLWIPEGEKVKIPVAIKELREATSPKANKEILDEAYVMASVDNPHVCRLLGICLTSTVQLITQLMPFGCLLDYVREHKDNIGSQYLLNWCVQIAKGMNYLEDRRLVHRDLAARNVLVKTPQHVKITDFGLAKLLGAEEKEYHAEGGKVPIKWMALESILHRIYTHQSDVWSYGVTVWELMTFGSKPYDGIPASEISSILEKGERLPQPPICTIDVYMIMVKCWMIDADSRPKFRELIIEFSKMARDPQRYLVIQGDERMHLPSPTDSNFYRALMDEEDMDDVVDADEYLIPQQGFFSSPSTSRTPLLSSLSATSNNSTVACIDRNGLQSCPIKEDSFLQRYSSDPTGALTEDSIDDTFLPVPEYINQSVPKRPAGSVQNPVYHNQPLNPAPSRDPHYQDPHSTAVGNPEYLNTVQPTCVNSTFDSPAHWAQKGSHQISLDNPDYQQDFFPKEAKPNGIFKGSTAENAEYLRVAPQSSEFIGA
# Method Description: WT-EGFR Kinase Assay (TR-FRET, 2 mM ATP)
# Type: biochemical
# Run Parameters: EGFR Wildtyp 2 mM ATP IC50 [mol/l] (median), median or individual measurements
pIC50: −log10 of the molar value.
Test Readout: pIC50

Example molecules with recorded pIC50:
Molecule: Cn1cc(CC(F)F)c2[nH]c(-c3ccnc(NC(=O)C(CC(F)F)c4ccc(F)cc4)c3)c(-c3ccccc3)c2c1=O (single isomer, unassigned) [Example 148]
pIC50: 5.06
//
Molecule: Cc1cn(C)c(=O)c2c(-c3ccc(F)cc3)c(-c3ccnc(NC(=O)C(CC(F)F)c4ccc(F)cc4)c3)[nH]c12 (racemic) [Example 034]
pIC50: < 4.70
//
Molecule: CC(C(=O)Nc1cc(-c2[nH]c3ccn(C)c(=O)c3c2-c2ccoc2)ccn1)c1ccc(F)cc1 (racemic)
pIC50: < 4.70
//
Molecule: CC(C(=O)Nc1cc(-c2[nH]c3c(c2-c2ccccc2)C(=O)N(C)CC3)ccn1)c1ccncc1 (racemic) [Example 153]
pIC50: < 4.70
//
Molecule: Cn1ccc2[nH]c(-c3ccnc(NC(=O)C(CC(F)F)c4ccc(F)cc4)c3)c(-c3ccccc3)c2c1=O (racemic)
pIC50: < 4.70

Consider the following items and state reported pIC50 for each.
1. CN1C(=O)c2c([nH]c(-c3ccnc(NC(=O)C(CC(F)F)c4ccc(F)cc4)c3)c2-c2ccccc2)CC12CCC2 (racemic) [Example 049]
2. Cn1cc(CC(F)(F)F)c2[nH]c(-c3ccnc(NC(=O)C(CC(F)F)c4ccc(F)cc4)c3)c(-c3ccc(F)cc3)c2c1=O (single isomer, unassigned) [Example 027]
3. Cc1ncc(-c2c(-c3ccnc(NC(=O)C(CC(F)F)c4ccc(F)cc4)c3)[nH]c3c2C(=O)N(C)CC3)s1 (racemic)
4. CN1C(=O)c2c([nH]c(-c3ccnc(NC(=O)C(CC(F)F)c4ccc(F)cc4)c3)c2-c2ccccc2)CC12CCC2 (single isomer, unassigned; (+)) [Example 051]
5. Cc1cn(C)c(=O)c2c(-c3ccc(F)cc3)c(-c3ccnc(NC(=O)C(C)c4ccc(F)cc4)c3)[nH]c12 (single isomer, unassigned; (-)) [Example 031]
6. CC(C(=O)Nc1cc(-c2[nH]c3ccn(C)c(=O)c3c2-c2ccc(F)cc2)ccn1)c1ccc(F)cc1 (single isomer, unassigned; (-)) [Example 101]

Key:
< 4.70
< 4.70
< 4.70
5.49
< 4.70
7.49

Exercise: Looking for the measured pIC50 of O=C1NCCc2[nH]c(-c3ccnc(NC(=O)C(CC(F)F)c4ccc(F)cc4)c3)c(-c3ccccc3)c21 (racemic) , can you help?
Key: < 4.70

###

# Study Target: CSNK1A1 (Homo sapiens (Human), UniProt P48729)
# Sequence (P48729 whole entry): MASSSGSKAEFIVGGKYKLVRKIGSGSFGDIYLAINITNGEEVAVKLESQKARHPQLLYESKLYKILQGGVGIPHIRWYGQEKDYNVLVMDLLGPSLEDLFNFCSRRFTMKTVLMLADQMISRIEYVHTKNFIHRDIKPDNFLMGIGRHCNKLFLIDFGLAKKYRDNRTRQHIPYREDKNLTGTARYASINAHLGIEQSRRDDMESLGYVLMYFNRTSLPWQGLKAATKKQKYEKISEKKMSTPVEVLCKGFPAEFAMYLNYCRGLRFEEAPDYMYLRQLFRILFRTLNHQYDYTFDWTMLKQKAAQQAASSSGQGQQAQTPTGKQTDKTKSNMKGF
Threshold 6 nM: IC50 strictly smaller gives Criterion met, otherwise Criterion not met.

These solved cases illustrate the format of a correct answer.
Compound: CN1CCc2[nH]c(-c3ccnc(NC(=O)C(CC(F)F)c4ccc(F)cc4)c3)c(-c3cscn3)c2C1=O (racemic)
Classification: Criterion not met
//
Compound: CN1CC(CC2CC2)c2[nH]c(-c3ccnc(NC(=O)C(CC(F)F)c4ccc(F)cc4)c3)c(-c3ccc(F)cc3)c2C1=O (stereo not shown)
Classification: Criterion not met
//
Compound: CN1CC(C)(C)c2[nH]c(-c3ccnc(NC(=O)C(CC(F)F)c4ccc(F)cc4)c3)c(-c3ccccc3)c2C1=O (racemic) [Example 150]
Classification: Criterion met

Exercise: # check: IC50 < 6 nM for CN1CCc2[nH]c(-c3ccnc(NC(=O)Cc4ccc(F)cc4)c3)c(-c3cccnc3)c2C1=O
Key: Criterion not met

Exercise: Follow-up item: O=C(Nc1cc(-c2[nH]c3cc[nH]c(=O)c3c2-c2ccccc2)ccn1)C(CC(F)F)c1ccc(F)cc1 (racemic)
Key: Criterion met

###

# Study Target: CSNK1A1 (Homo sapiens (Human))
Test Readout: IC50 (nM)
Numbers only, in nM.

Example molecules with recorded IC50:
Molecule: O=C(Nc1cc(-c2[nH]c3ccn(C4CC4)c(=O)c3c2-c2ccc(F)cc2)ccn1)C(CC(F)F)c1ccc(F)cc1 (single isomer, unassigned; (-)) [Example 135]
Study Target: CSNK1A1 (Homo sapiens (Human))
IC50, nM: 7.8
//
Molecule: Cn1cc(CC2CC2)c2[nH]c(-c3ccnc(NC(=O)C(CC(F)F)c4ccc(F)cc4)c3)c(-c3ccc(F)cc3)c2c1=O (racemic)
Study Target: CSNK1A1 (Homo sapiens (Human))
IC50, nM: 11
//
Molecule: CN1CCc2[nH]c(-c3ccnc(NC(=O)C(CC(F)F)c4ccc(F)cc4)c3)c(-c3ccccc3)c2C1=O (racemic) [Example 2]
Study Target: CSNK1A1 (Homo sapiens (Human))
IC50, nM: 1.7
//
Molecule: CN1C(=O)c2c([nH]c(-c3ccnc(NC(=O)C(CC(F)F)c4ccc(F)cc4)c3)c2-c2ccccc2)CC12CCC2 (racemic) [Example 49]
Study Target: CSNK1A1 (Homo sapiens (Human))
IC50, nM: 4.6
//
Molecule: Cn1cc(CC(F)F)c2[nH]c(-c3ccnc(NC(=O)C(CC(F)F)c4ccc(F)cc4)c3)c(-c3ccccc3)c2c1=O (racemic) [Example 147]
Study Target: CSNK1A1 (Homo sapiens (Human))
IC50, nM: 4.3

Consider the following items and state reported IC50 for each.
1. CN1CCc2[nH]c(-c3ccnc(NC(=O)C(CC(F)F)c4ccc(F)cc4)c3)c(-c3ccc(F)cc3)c2C1=O (racemic)
2. CC(C(=O)Nc1cc(-c2[nH]c3c(c2-c2ccccc2)C(=O)N(C)CC3CC2CC2)ccn1)c1ccc(F)cc1 (stereo not shown)
3. CN1CCc2[nH]c(-c3ccnc(NC(=O)C(CC(F)F)c4ccc(F)cc4)c3)c(-c3cccnc3)c2C1=O (single isomer, unassigned) [Example 11]
4. COCCN(C)C(=O)c1ccc(CC(=O)Nc2cc(-c3[nH]c4c(c3-c3ccc(F)cc3)C(=O)N(C)CC4)ccn2)cc1
5. Cc1cn(C)c(=O)c2c(-c3ccccc3)c(-c3ccnc(NC(=O)C(C)c4ccc(F)cc4)c3)[nH]c12 (racemic)
6. CC(C(=O)Nc1cc(-c2[nH]c3ccn(C)c(=O)c3c2-c2cccs2)ccn1)c1ccc(F)cc1 (racemic)

Key:
1. 4.2
2. 4.5
3. 4.3
4. 3.6
5. 7.8
6. 2.4

Consider the following items and state reported IC50 for each.
1. Cc1cn(C)c(=O)c2c(-c3ccc(F)cc3)c(-c3ccnc(NC(=O)C(CC(F)F)c4ccc(F)cc4)c3)[nH]c12 (racemic) [Example 34]
2. CC(C(=O)Nc1cc(-c2[nH]c3c(c2-c2ccccc2)C(=O)N(C)CC3)ccn1)c1ccncc1 (racemic) [Example 153]
3. CC(C(=O)Nc1cc(-c2[nH]c3c(CC(F)(F)F)cn(C)c(=O)c3c2-c2ccccc2)ccn1)c1ccc(F)cc1 (single isomer, unassigned; (-)) [Example 16]
4. CN1C(=O)c2c([nH]c(-c3ccnc(NC(=O)C(CC(F)F)c4ccc(F)cc4)c3)c2-c2ccccc2)CC12CCC2 (single isomer, unassigned; (-)) [Example 50]
5. O=C(Cc1ccc(F)cc1)Nc1cc(-c2[nH]c3ccn(C4CC4)c(=O)c3c2-c2ccccc2)ccn1
6. Cn1ccc2[nH]c(-c3ccnc(NC(=O)C(CC(F)F)c4ccc(F)cc4)c3)c(-c3ccc(Cl)s3)c2c1=O (racemic)
7. Cc1ncc(-c2c(-c3ccnc(NC(=O)C(CC(F)F)c4ccc(F)cc4)c3)[nH]c3c2C(=O)N(C)CC3)s1 (racemic)
8. CC(C(=O)Nc1cc(-c2[nH]c3ccn(C)c(=O)c3c2-c2ccccc2)ccn1)c1ccc(F)cc1 (single isomer, unassigned) [Example 105]

Key:
[5.8, 2, 7.7, 12, 0.96, 2.3, 15, 0.71]

Consider the following items and state reported IC50 for each.
1. CC(C(=O)Nc1cc(-c2[nH]c3c(c2-c2ccccc2F)C(=O)NC(C)(C)C3)ccn1)c1ccc(F)cc1 (stereo not shown)
2. Cn1cc(CC(F)(F)F)c2[nH]c(-c3ccnc(NC(=O)C(CC(F)F)c4ccc(F)cc4)c3)c(-c3ccccc3)c2c1=O (racemic) [Example 18]
3. CC(C(=O)Nc1cc(-c2[nH]c3c(c2-c2ccccc2)C(=O)N(C)C2(CCC2)C3)ccn1)c1ccc(F)cc1 (single isomer, unassigned; (-)) [Example 53]
4. Cn1ccc2[nH]c(-c3ccnc(NC(=O)Cc4ccc(F)cc4)c3)c(-c3ccccn3)c2c1=O
5. CC(C(=O)Nc1cc(-c2[nH]c3c(c2-c2ccccc2)C(=O)N(C)CC3CC(F)(F)F)ccn1)c1ccc(F)cc1 (stereo not shown)
6. CC(C(=O)Nc1cc(-c2[nH]c3c(c2-c2ccc(F)cc2F)C(=O)N(C)CC3)ccn1)c1ccc(F)cc1 (single isomer, unassigned) [Example 70]

Key:
[12, 5.9, 21, 3.3, 3.5, 16]
